assayed_system: ASIC2a (Rattus norvegicus)
Sequence (Q62962 whole entry): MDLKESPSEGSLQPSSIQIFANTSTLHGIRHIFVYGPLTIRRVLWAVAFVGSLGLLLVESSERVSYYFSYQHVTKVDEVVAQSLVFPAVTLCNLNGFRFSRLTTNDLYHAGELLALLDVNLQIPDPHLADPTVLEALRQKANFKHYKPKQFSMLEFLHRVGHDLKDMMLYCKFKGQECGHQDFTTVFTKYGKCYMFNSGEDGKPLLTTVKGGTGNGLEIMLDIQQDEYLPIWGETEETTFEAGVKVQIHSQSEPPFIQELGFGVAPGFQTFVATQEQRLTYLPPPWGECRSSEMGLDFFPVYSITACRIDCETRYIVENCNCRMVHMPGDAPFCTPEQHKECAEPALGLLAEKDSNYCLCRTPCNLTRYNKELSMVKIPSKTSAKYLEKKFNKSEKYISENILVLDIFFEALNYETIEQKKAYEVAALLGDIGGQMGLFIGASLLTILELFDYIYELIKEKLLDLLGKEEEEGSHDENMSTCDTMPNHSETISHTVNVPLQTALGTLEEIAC
test_description: Activity at ASIC2a
measurement_context: inactive at ASIC2a
experimental_endpoint: IC50

- Cc1cc(N2CC(Oc3cc(F)c4c(N)n[nH]c4c3)C2)c(F)cn1 [JNJ-67869386]: > 50 µM

Turning now to a further molecule:
// query Quote IC50 reported for COc1ccc(Oc2ccc(-c3nc4cc(C(=N)N)ccc4[nH]3)cc2)cc1OC [JNJ-799760] please.
// result > 50 µM

* * *

assayed_system: rat ASIC1a (Rattus norvegicus)
Construct: expressed in transfected cells
test_description: Whole-cell patch clamp: inhibition of acid-induced current in CHO cells stably expressing rat ASIC1a
Format: cell-based
measurement_context: test pH 6.0, holding pH 8.2, WT
List of pIC50 values.
Units for pIC50: none; it is -log10 of a concentration expressed in mol/L.

* COc1ccc(Oc2ccc(-c3nc4cc(C(=N)N)ccc4[nH]3)cc2)cc1OC | 7.60

Moving on to the next molecule.
// query Recall and state the measured pIC50 for Cc1cc(N2CC(Oc3cc(F)c4c(N)n[nH]c4c3)C2)c(F)cn1 .
// result 7.54

* * *

assayed_system: rat ASIC1a (Rattus norvegicus, UniProt P55926)
Construct: expressed in transfected cells
Sequence (P55926 whole entry): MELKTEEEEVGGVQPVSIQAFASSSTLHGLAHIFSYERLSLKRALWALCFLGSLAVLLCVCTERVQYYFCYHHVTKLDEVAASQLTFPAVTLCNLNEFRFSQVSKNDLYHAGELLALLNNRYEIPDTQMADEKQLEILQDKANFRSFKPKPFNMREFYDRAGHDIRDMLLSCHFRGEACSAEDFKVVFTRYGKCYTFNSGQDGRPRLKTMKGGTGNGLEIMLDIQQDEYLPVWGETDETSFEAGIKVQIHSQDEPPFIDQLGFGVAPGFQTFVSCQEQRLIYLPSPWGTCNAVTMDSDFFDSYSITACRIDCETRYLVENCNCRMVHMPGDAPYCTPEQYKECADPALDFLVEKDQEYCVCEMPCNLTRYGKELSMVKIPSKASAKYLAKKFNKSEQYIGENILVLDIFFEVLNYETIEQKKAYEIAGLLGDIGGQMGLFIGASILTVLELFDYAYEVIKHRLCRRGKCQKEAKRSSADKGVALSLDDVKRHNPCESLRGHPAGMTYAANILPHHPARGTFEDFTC
test_description: Whole-cell patch clamp: inhibition of acid-induced current in CHO cells stably expressing rat ASIC1a
Format: cell-based
measurement_context: test pH 7.1, holding pH 8.2
IC50 values, listed per item
Your reply should be a number followed by the unit it is expressed in.

* COc1ccc(Oc2ccc(-c3nc4cc(C(=N)N)ccc4[nH]3)cc2)cc1OC | 3.6 nM

Consider the record given below.
// query Provide one value: measured IC50 of Cc1cc(N2CC(Oc3cc(F)c4c(N)n[nH]c4c3)C2)c(F)cn1
// result 3.8 nM

* * *

assayed_system: rASIC1a F98A (Rattus norvegicus, UniProt P55926, F98A)
Sequence (P55926 whole entry F98A): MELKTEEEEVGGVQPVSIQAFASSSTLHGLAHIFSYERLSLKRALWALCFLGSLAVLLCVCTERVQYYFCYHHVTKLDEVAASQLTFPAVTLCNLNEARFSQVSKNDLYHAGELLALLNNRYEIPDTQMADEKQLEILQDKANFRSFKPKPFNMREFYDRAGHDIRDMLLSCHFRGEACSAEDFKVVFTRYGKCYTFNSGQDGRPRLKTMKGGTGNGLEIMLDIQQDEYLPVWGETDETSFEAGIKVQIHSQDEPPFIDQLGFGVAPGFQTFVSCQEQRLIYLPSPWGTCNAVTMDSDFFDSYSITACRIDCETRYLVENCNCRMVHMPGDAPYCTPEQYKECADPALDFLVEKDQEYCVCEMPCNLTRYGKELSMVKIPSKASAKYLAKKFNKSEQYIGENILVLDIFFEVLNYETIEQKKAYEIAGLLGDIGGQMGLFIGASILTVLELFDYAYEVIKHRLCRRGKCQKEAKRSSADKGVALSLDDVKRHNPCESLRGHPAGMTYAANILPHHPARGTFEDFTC
test_description: Inhibition of pH 6.0-induced current of mutant channel F98A
experimental_endpoint: IC50 (nM)
# number only, unit nM dropped from output

- Cc1cc(N2CC(Oc3cc(F)c4c(N)n[nH]c4c3)C2)c(F)cn1: 626

Here is the next item to consider.
// query Give the reported IC50 for this compound. COc1ccc(Oc2ccc(-c3nc4cc(C(=N)N)ccc4[nH]3)cc2)cc1OC
// result 726

* * *

The reader will find reported pIC50 values listed item by item below.
assayed_system: rASIC1a Y340A (Rattus norvegicus, UniProt P55926, Y340A)
Sequence (P55926 whole entry Y340A): as the sequence (P55926 whole entry) above, with Y340A counted along it
test_description: Inhibition of pH 6.0-induced current of mutant channel Y340A
Just so you know, pIC50 here is -log10 of the concentration in molar units; reply with that number alone.

• COc1ccc(Oc2ccc(-c3nc4cc(C(=N)N)ccc4[nH]3)cc2)cc1OC = 6.59

Consider now this further molecule.
// query # assay system rASIC1a Y340A (Rattus norvegicus, UniProt P55926, Y340A): give pIC50 of Cc1cc(N2CC(Oc3cc(F)c4c(N)n[nH]c4c3)C2)c(F)cn1
// result 6.24

Source listed as paper PMC7873226.
